Each recorded value in this set is attributed to ChEMBL document CHEMBL4513216.

System: Plasmodium berghei
Experiment: Screen against P. berghei liver stage (PbLuc), transformed with Luciferase, at 10uM
Format: functional, HepG2
Conditions: tested at 10 uM
Screen size: about 69,000 compounds; about 8,600 (12%) showed an effect of 50% or more. The sample holds strong results, similar compounds and a random draw of the others, so the mix is not that of the screen.
Experimental Readout: INHIBITION (%)
Number only, in %; omit the unit.

OCC1N(Cc2ccc(F)cc2)C2CCC1(O)CC2 (stereo unspecified) ... 39.6
NCC(=O)N1CCC2(CC1)CN(C(=O)Cc1ccc(Cl)cc1)CCO2 ... -26.3
Cc1nnc(NC(=O)NCc2ccc(OC(C)C)nc2)s1 ... 21.5

For the compound shown here, CCc1nc(C2CCCN2C(=O)c2cnc[nH]2)no1 (stereo unspecified) , give the reported INHIBITION.
37.9

Proceed to "COc1cc(CNCc2c(C)nn(C)c2N(C)C)ccc1OCCO"
21.6

Proceed to "O=C(CC1CC1)N1CCC2(CC1)CN(c1ncc(F)cn1)CCO2"
35.7

###

Documented INHIBITION across a set of compounds
Test system: Plasmodium berghei
Assay: Screen against P. berghei liver stage (PbLuc), transformed with Luciferase, at 10uM
Assay type: functional, HepG2
Settings: tested at 10 uM
Out of some 69,000 compounds screened, about 8,600 (12%) showed an effect of 50% or more. The entries come from a sample that favours strong results as a whole.
Number only, in %; omit the unit.

In the examples that follow, each entry is paired with its recorded INHIBITION.
O=C(C1CCCC1)N1CCCC([C@@H]2C[C@H](C(F)F)n3ncnc3N2)C1 (some centres undefined) ... 0.788
C[S+]([O-])CCNC(=O)N1CCSC2(CCCCC2)C1 (centres undefined) ... 25.4
O=C([C@@H]1CCO[C@@H]2CCN(Cc3ccc(F)cc3)C[C@H]21)N1CCCCO1 ... 30.3
Cn1cc(C(=O)Nc2ccc3c(c2)N(C(=O)c2ccco2)CC3)nn1 ... 20.1
Cn1ccc(CNC(=O)Nc2ccc(S(=O)(=O)C(F)F)cc2)c1 ... 30.4

For the compound shown here, Cc1nnc(CN2CCC3(CCC(=O)N(C4CCC(O)CC4)C3)CC2)o1 (centres undefined) , give the reported INHIBITION.
26

Proceed to "COc1ccc(CNC(=O)Nc2ccc(S(=O)(=O)C(F)F)cc2)cc1"
66.2

Proceed to "CC(C)N(C(=O)CCc1cccc(F)c1)C1CCOCC1"
-6.34

Proceed to "O=C(NCCc1ccccn1)N1CCSC2(CCCCC2)C1"
3.17

Proceed to Cc1cc(C(=O)N2CCNC(c3ccccc3)C2)c2ccc(F)cc2n1 (centres undefined)
36.9

Proceed to "CCCn1nc2c(cc1=O)CN(Cc1ccccn1)CC2"
58.3

Proceed to "COc1ccc(Nc2nc(N)c(C(C)=O)s2)cc1OC"
27.5

Proceed to "O=C(O)c1cc(-c2cn[nH]c2)cc(S(=O)(=O)N2CCSCC2)c1"
-4.927

Proceed to "Cn1cc(-c2cc(C(=O)N3CCOCC3)c3ccc(F)cc3n2)cn1"
-27.5

###

Tested on: Plasmodium berghei
Assay: Screen against P. berghei liver stage (PbLuc), transformed with Luciferase, at 10uM
Format: functional, HepG2
Details: tested at 10 uM
Among all 69,000 compounds or so, about 8,600 (12%) showed an effect of 50% or more. For the sample, strong results were picked, then their nearest neighbours and some compounds at random.
Parameter threshold = 20%. Response is condition met when INHIBITION meets or exceeds it, else condition not met.

Example results:
Cc1ccc(C(=O)NCCCN(C)S(C)(=O)=O)c(=O)[nH]1 ... condition met
Cn1nc(C(=O)N2CCOCC2)c2c1CN(CC1CCC1)C2 ... condition met
CC(C)n1cnnc1CN(C)C(=O)c1ccc[nH]1 ... condition not met
Cc1ccc(C(=O)NS(=O)(=O)c2ccccc2C)c(=O)[nH]1 ... condition met
CC(=O)Nc1ccc(CN2CCCC(c3cc4ncccc4[nH]3)C2)cc1 (configuration not stated) ... condition met
CNC(=O)c1cccc(CN2CCN(c3ccncc3)CC2)c1 ... condition met
Cc1nc(C)n(CC2CCCCN2CCOc2cccc(C#N)c2)n1 (configuration not stated) ... condition met
Cc1ccc(S(=O)(=O)N2C[C@H]3C[C@H](NC(=O)c4ccn(C)n4)[C@H]3C2)cc1 ... condition met

Has "Cc1ccc(S(=O)(=O)N2C[C@H]3C[C@H](NC(=O)c4ccnn4C)[C@H]3C2)cc1" a recorded INHIBITION greater than or equal to 20%?
condition met

Proceed to "CCc1cc(N(C)CCCO)n2nccc2n1"
condition not met

Proceed to Fc1ccc(CN2CCCC(c3cc4ncccc4[nH]3)C2)cc1 (configuration not stated)
condition met

Proceed to Cn1cc(NC(=O)N2CCCC2c2ccccn2)ccc1=O (configuration not stated)
condition not met

Proceed to "Cc1ccc(S(=O)(=O)NC(=O)c2cccc3c2OCCO3)c(C)c1"
condition met

Proceed to "CC(C)(C)OC(=O)N[C@@H]1C[C@@H](O)CN(C(=O)c2cccc(F)c2)C[C@H]1O"
condition not met

Proceed to "Cc1ccc(CCC(=O)N2CCn3c(nnc3C(C)C)C2)cc1Cl"
condition not met

Proceed to "CCOc1ccc(CN2CCN(C(=O)c3cc(C4CC4)[nH]n3)CC2)cc1"
condition met

Proceed to Cc1cc(CN2CCN(C(=O)NC(C)c3ccc(C)o3)CC2)on1 (configuration not stated)
condition not met

Proceed to "O[C@@H]1CN(Cc2ccc(F)cc2)CC[C@H]1NCc1ccccn1"
condition met

Proceed to CC(NC(=O)N(C)CCCOc1ccccc1)c1nncn1C (configuration not stated)
condition not met

Proceed to "Cc1ccc(S(=O)(=O)N2C[C@H]3C[C@H](NC(=O)c4cnn(C)c4)[C@H]3C2)cc1"
condition met

Proceed to "COC(=O)c1ccccc1S(=O)(=O)NC(=O)c1cccc2c1OCCO2"
condition not met
